assay: qHTS for differential inhibitors of proliferation of Plasmodium falciparum line W2 (AID 1883); settings: Plasmodium falciparum W2 proliferation inhibition; series mostly up to 28.7 µM;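 further: parasites grown with compound for 72 h before lysis and staining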
Inconclusive results are not listed. Calls of active or inactive are those of the source. The call rests on the fitted dose curve; in most records, active means well fitted curve in the direction sought with a large enough effect; inconclusive means small, poorly fitted or top-dose-only effect, or another doubt; inactive means no such curve, though single readings can be large or run the other way.
Answer with one of the outcomes given here: true (1) (active), false (0) (inactive)

Q: Which outcome did this test record for the compound Cc1nc2ccccn2c(=O)c1CCN1CCC(C(=O)c2ccc(F)cc2)CC1 ?
Result: true (1)

Others:
Q: Recorded test outcome, item CC[N+](C)(C)c1cccc(O)c1
Result: false (0)

Q: Another compound to look at: Nc1nc(N)c2nc(-c3ccccc3)c(N)nc2n1
Result: true (1)

Q: Same lookup for C#CCN(C)CCCOc1ccc(Cl)cc1Cl , please.
Result: true (1)

Q: Follow-up item: C[n+]1cc2c3c(ccc2c2ccc4cc5c(cc4c21)OCO5)OCO3
Result: true (1)

Q: How about this compound: CC(N=C(NC#N)Nc1ccncc1)C(C)(C)C (stereo unspecified)
Result: true (1)
